measured-on: K-Ras G12C (Homo sapiens, UniProt P01116, G12C)
Construct: This protein contained 188 amino acids in total, including an N-terminal 6-Histidine tag; made in house; host or cells: E. coli BL21
method-notes: CAF assay (% CAF; method in Example 7, not in this part)
Type: binding
measurement-setup: 10 μM, 1 h; Table 4
metric-name: % CAF @ 10 μM, 1 h (%)
Hi! Could you send only the number? It should be in %, unit omitted.

Before answering, review these 3 worked examples.
{"columns": ["smi", "metric-name", "unit-descriptor", "number"],
 "data": [
  ["C=CC(=O)N1CCN(c2nc(=O)n3c4c(c(-c5c(F)cc(F)cc5F)c(Cl)cc24)SC[C@H]3CCCN2C[C@@H]3C[C@H]2CO3)[C@@H](C)C1", "% CAF @ 10 μM, 1 h", "%", 96.6],
  ["C=CC(=O)N1CCN(c2nc(=O)n3c4c(c(-c5ccc(F)cc5F)c(Cl)cc24)SC[C@H]3C)[C@@H](C)C1", "% CAF @ 10 μM, 1 h", "%", 87.2],
  ["C=CC(=O)N1CCN(c2nc(=O)n3c4c(c(-c5c(F)cc(F)cc5F)c(Cl)cc24)SC[C@@H]3CC2CCN(C)CC2)[C@@H](C)C1", "% CAF @ 10 μM, 1 h", "%", 96.7]
]}

Q. Quote % CAF @ 10 μM, 1 h reported for C=CC(=O)N1CCN(c2nc(=O)n3c4c(c(-c5ccc(F)cc5F)c(Cl)cc24)SC[C@H]3CC2CCN(C)CC2)[C@@H](C)C1 please.
A. 82.4

Q. State, in one line, measured % CAF @ 10 μM, 1 h of C=CC(=O)N1CCN(c2nc(=O)n3c4c(c(-c5ccc(F)cc5F)c(Cl)cc24)SC[C@@H]3CCCN2C[C@@H]3C[C@H]2CO3)[C@@H](C)C1
A. 94.7

Q. Tell me % CAF @ 10 μM, 1 h reported for C=CC(=O)N1CCN(c2nc(=O)n3c4c(c(-c5ccc(F)cc5F)c(Cl)cc24)SC[C@@H]3CN2CCN(C3COC3)CC2)[C@@H](C)C1
A. 96

====

measured-on: Cys12 of the KRAS 4B G12C protein (Homo sapiens, UniProt P01116, G12C)
Construct: This protein contained 188 amino acids in total, including an N-terminal 6-Histidine tag; made in house; host or cells: E. coli BL21
method-notes: In vitro covalent adduct formation (CAF) assay, LC-MS intact mass
Type: binding
measurement-setup: after 60 min
metric-name: CAF (% binding after 60 min) (%)
Hi! Could you send only the number? It should be in %, unit omitted.

{"columns": ["smi", "measured-on", "metric-name", "number"],
 "data": [
  ["C=CC(=O)N1CCN(c2nc(=O)n3c4c(c(-c5ccc(F)cc5)c(C(F)(F)F)cc24)SC[C@@H](OC)C3)CC1", "Cys12 of the KRAS 4B G12C protein (Homo sapiens, UniProt P01116, G12C)", "CAF (% binding after 60 min)", 97],
  ["C=CC(=O)N1[C@H](C)CN(c2nc(=O)n3c4c(c(-c5ccc(F)cc5)c(C(F)(F)F)cc24)SC[C@@H](OCCOC)C3)C[C@@H]1C", "Cys12 of the KRAS 4B G12C protein (Homo sapiens, UniProt P01116, G12C)", "CAF (% binding after 60 min)", 96]
]}

Q. # return recorded CAF (% binding after 60 min) for entry C=CC(=O)N1CCN(c2nc(=O)n3c4c(c(-c5ccc(F)c(Cl)c5)c(C(F)(F)F)cc24)SC[C@@H](OCOC)C3)CC1
A. 97

Origin of the recorded values: patent US20230107642A1
